# Test system: E. faecalis
# measurement_notes: Summary of in vitro activity (MIC) against E. faecalis
# Format: cell-based, Enterococcus faecalis
# experimental_conditions: E. faecalis, Number 7
measure: MIC90 (µg/mL)

- molecule: "CC(=O)NC[C@H]1CN(c2ccc(N3CCN(Cc4ccc([N+](=O)[O-])o4)CC3)c(F)c2)C(=O)O1"
  reading: 2
- molecule: "CC(=O)NC[C@H]1CN(c2ccc(N3CC4C(CN(C)Cc5ccc([N+](=O)[O-])o5)C4C3)c(F)c2)C(=O)O1 (stereo partly drawn)"
  reading: 4
- molecule: "CC(=O)NC[C@H]1CN(c2ccc(N3CCC(N(C)Cc4ccc([N+](=O)[O-])o4)CC3)c(F)c2)C(=O)O1"
  reading: 1
- molecule: "CC(=O)NC[C@H]1CN(c2ccc(N3CCN(C(=O)c4ccc([N+](=O)[O-])s4)CC3)c(F)c2)C(=O)O1.Cl"
  reading: 1
- molecule: "CC(=O)NC[C@H]1CN(c2ccc(N3CCC(N(C)C(=O)c4ccc([N+](=O)[O-])o4)CC3)c(F)c2)C(=O)O1"
  reading: 0.25
- molecule: "CC(=O)NC[C@H]1CN(c2ccc(N3CCN(C(=O)c4ccc([N+](=O)[O-])o4)CC3)c(F)c2)C(=O)O1"
  reading: 1

* * *

# System: S. aureus
# measurement_notes: Summary of in vitro activity (MIC) against S. aureus
# Assay type: cell-based, Staphylococcus aureus
# experimental_conditions: S. aureus, Number 8

- compound: "CC(=O)NC[C@H]1CN(c2ccc(N3CCN(Cc4ccc([N+](=O)[O-])o4)CC3)c(F)c2)C(=O)O1 [Compound No. 15]"
  target_system: "S. aureus"
  unit_of_measure: "µg/mL"
  MIC50: 2
- compound: "CC(=O)NC[C@H]1CN(c2ccc(N3CCN(C(=O)c4ccc([N+](=O)[O-])o4)CC3)c(F)c2)C(=O)O1 [Compound No. 06]"
  target_system: "S. aureus"
  unit_of_measure: "µg/mL"
  MIC50: 1
- compound: "CC(=O)NC[C@H]1CN(c2ccc(N3CC4C(CN(C)Cc5ccc([N+](=O)[O-])o5)C4C3)c(F)c2)C(=O)O1 (stereo partly drawn) [Compound No. 40]"
  target_system: "S. aureus"
  unit_of_measure: "µg/mL"
  MIC50: 2
- compound: "CC(=O)NC[C@H]1CN(c2ccc(N3CCC(N(C)C(=O)c4ccc([N+](=O)[O-])o4)CC3)c(F)c2)C(=O)O1 [Compound No. 44]"
  target_system: "S. aureus"
  unit_of_measure: "µg/mL"
  MIC50: 0.064
- compound: "CC(=O)NC[C@H]1CN(c2ccc(N3CCC(N(C)Cc4ccc([N+](=O)[O-])o4)CC3)c(F)c2)C(=O)O1 [Compound No. 50]"
  target_system: "S. aureus"
  unit_of_measure: "µg/mL"
  MIC50: 1
- compound: "CC(=O)NC[C@H]1CN(c2ccc(N3CCN(C(=O)c4ccc([N+](=O)[O-])s4)CC3)c(F)c2)C(=O)O1.Cl [Compound No. 29]"
  target_system: "S. aureus"
  unit_of_measure: "µg/mL"
  MIC50: 0.064

* * *

Listed here are compounds together with their documented MIC90.
# Test system: S. aureus
# measurement_notes: Summary of in vitro activity (MIC) against S. aureus
# Assay type: cell-based, Staphylococcus aureus
# experimental_conditions: S. aureus, Number 8

- compound: "CC(=O)NC[C@H]1CN(c2ccc(N3CCC(N(C)C(=O)c4ccc([N+](=O)[O-])o4)CC3)c(F)c2)C(=O)O1"
  unit_of_measure: "µg/mL"
  MIC90: 0.25
- compound: "CC(=O)NC[C@H]1CN(c2ccc(N3CCN(C(=O)c4ccc([N+](=O)[O-])s4)CC3)c(F)c2)C(=O)O1.Cl"
  unit_of_measure: "µg/mL"
  MIC90: 0.25
- compound: "CC(=O)NC[C@H]1CN(c2ccc(N3CCN(Cc4ccc([N+](=O)[O-])o4)CC3)c(F)c2)C(=O)O1"
  unit_of_measure: "µg/mL"
  MIC90: 2
- compound: "CC(=O)NC[C@H]1CN(c2ccc(N3CC4C(CN(C)Cc5ccc([N+](=O)[O-])o5)C4C3)c(F)c2)C(=O)O1 (stereo partly drawn)"
  unit_of_measure: "µg/mL"
  MIC90: 4
- compound: "CC(=O)NC[C@H]1CN(c2ccc(N3CCN(C(=O)c4ccc([N+](=O)[O-])o4)CC3)c(F)c2)C(=O)O1"
  unit_of_measure: "µg/mL"
  MIC90: 1
- compound: "CC(=O)NC[C@H]1CN(c2ccc(N3CCC(N(C)Cc4ccc([N+](=O)[O-])o4)CC3)c(F)c2)C(=O)O1"
  unit_of_measure: "µg/mL"
  MIC90: 2
